Values from the supplement of paper PMC3545927

Molecular target: furin, P09958;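 further: purified furin at 1:10 enzyme:substrate in 50 mM HEPES pH 7.5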
Sequence (P09958 whole entry): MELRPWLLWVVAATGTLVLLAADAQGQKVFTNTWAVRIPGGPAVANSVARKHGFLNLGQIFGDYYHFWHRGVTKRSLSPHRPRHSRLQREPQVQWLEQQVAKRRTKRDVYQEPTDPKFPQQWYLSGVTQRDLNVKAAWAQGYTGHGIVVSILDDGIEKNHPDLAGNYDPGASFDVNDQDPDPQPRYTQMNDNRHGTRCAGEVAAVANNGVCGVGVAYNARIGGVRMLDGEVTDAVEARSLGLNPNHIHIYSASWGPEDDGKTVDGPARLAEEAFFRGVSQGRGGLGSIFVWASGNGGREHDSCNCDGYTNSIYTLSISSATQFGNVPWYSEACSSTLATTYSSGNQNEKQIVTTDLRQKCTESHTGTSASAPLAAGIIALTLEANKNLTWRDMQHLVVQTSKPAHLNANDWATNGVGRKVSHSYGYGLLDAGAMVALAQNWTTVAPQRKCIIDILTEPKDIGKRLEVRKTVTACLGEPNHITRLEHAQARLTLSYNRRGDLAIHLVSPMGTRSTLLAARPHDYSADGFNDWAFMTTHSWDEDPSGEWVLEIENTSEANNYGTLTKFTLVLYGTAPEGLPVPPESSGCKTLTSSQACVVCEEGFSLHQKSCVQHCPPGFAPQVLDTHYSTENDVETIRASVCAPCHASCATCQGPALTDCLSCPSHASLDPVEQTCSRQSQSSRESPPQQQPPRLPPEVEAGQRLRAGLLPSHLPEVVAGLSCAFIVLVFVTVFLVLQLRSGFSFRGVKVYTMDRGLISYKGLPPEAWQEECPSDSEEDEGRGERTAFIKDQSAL
Test: furin cleavage Z-score vs untreated control; higher = more cleavage, active = 3.5 or more, inactive = 1 or less, 8 variable residues between constant flanks
Conditions: 30 min
The other results are listed elsewhere or left out. No count for the full screen is at hand.
readout_kind: furin cleavage Z-score
Answer with a number only.

macromolecule_sequence	furin cleavage Z-score
CAQKKRGGPAAGNASASA [WN3]	0.637

### Prompt What furin cleavage Z-score value was documented for this sequence, CATPSRAGRAAGNASASA [FS-99] ?
### Response 2.86

### Prompt What furin cleavage Z-score value was documented for this sequence, CATPSRCVRIAGNASASA [FS-203] ?
### Response -0.417

### Prompt What furin cleavage Z-score value was documented for this sequence, CAREKRSNSQAGNASASA [FS-2008] ?
### Response 7.52
